System: Fibroblast
Test: Multiplex assay against human fibroblast
Assay type: toxicity, cell-based
Settings: 48 h, 1 µM, compound concentration 1 uM, replicate 1
measured_metric: Population Healthy Nuclei (%)
Give the number; % is assumed, so skip it.

c1cn2cc(-c3ccc4cn[nH]c4c3)nc(Nc3ccc(N4CCOCC4)cc3)c2n1 [ENTOSPLETINIB]	65
OC1(c2ccc(Cl)cc2)CCN(Cc2c[nH]c3ccccc23)CC1	26
COc1cc(-n2cnc3cc(-c4ccc(Cl)cc4)sc3c2=O)ccc1OCCN1CCCC1	48
C=CC(=O)Nc1cccc(C(=O)Nc2ccc(Nc3cc(-c4[nH]c(SC)nc4C)ccn3)cc2)c1	50
CN1CCN(CCOc2cc(OC3CCOCC3)c3c(Nc4c(Cl)ccc5c4OCO5)ncnc3c2)CC1 [SARACATINIB]	52
C=CC(=O)Nc1ccc2ncnc(Nc3ccc(OCc4cccc(F)c4)c(Cl)c3)c2c1.Cc1ccc(S(=O)(=O)O)cc1	48
Cc1cc(C)cc(-c2cnc3cc(Cl)c(-c4cccc(O)c4)cc3c2OCCCN)c1	33
Cc1c(-c2ccc(O)cc2)n(Cc2ccc(OCCN3CCCCCC3)cc2)c2ccc(O)cc12 [BAZEDOXIFENE]	51

Next, consider the following compound.
Case CN1CCN(c2ccc(OC(F)(F)F)c(Nc3ncc4c(n3)-c3c(c(C(N)=O)nn3CCO)CC4)c2)CC1 [ONVANSERTIB] , Fibroblast, Population Healthy Nuclei (%) recorded as 37

* * *

Tested on: HEK-293T
Experiment: Multiplex assay against HEK293T
Type: toxicity, cell-based
Details: human, 48 h, 10 µM, compound concentration 10 uM, replicate 2
measured_metric: Population Mitotic Cells (%)
Give the number; % is assumed, so skip it.

Worked set:
CNc1nc(NCc2ccc(NS(C)(=O)=O)cc2Cl)cc(-c2ccccn2)n1	38
CN(C)C(=O)/C(C#N)=C/c1ccc(-c2nc3cnc4[nH]ccc4c3n2C2CCCCC2)o1	64
CCn1c(=O)c(-c2ccc(Cl)cc2Cl)cc2cnc(Nc3ccc(N4CCNCC4)c(F)c3)nc21	0
COc1ncc(-c2ccc3nccc(-c4ccnnc4)c3c2)cc1NS(=O)(=O)c1ccc(F)cc1F	61
Cc1csc2c(N[C@@H](C)CN3CCN(S(=O)(=O)c4ccc(Cl)c(Cl)c4)CC3)ncnc12	25

Next, consider the following molecule.
Item: CC(C)NCC(O)COc1ccc(CCOCC2CC2)cc1.Cl (stereo unspecified) [BETAXOLOL HYDROCHLORIDE] | Population Mitotic Cells (%): 59

* * *

Entries annotated with measured Growth Rate
System: Fibroblast
Test: Incucyte cell viability with human fibroblast; note: filed as whole numbers so only -1 and 0 and 1 occur
Type: toxicity, cell-based
Settings: 18 h, 10 µM, compound concentration 10 uM, replicate number 2, timepoint 18 hours

CCCCN1CCC(COC(=O)c2cc(Cl)c(N)c3c2OCCO3)CC1.Cl	0
COc1ccc(Cn2ccc3ccc(C(=O)NO)cc32)cc1	0
C[S+]([O-])c1ccc(-c2nc(-c3ccncc3)c(-c3ccc(F)cc3)[nH]2)cc1 (stereo not given) [SB-203580]	1
Cl.Cl.c1ccc([C@@H]2C[C@H]2NC2CCNCC2)cc1	1
COc1cc(-c2cn([C@H]3CCc4c(F)cccc4N(CC(F)(F)F)C3=O)nn2)ccc1-n1cnc(C)c1	0
O=c1nc(-c2ccccn2)sc2ccccc12 [BTZO-1]	1

Next, consider the following molecule.
Case COc1ccc(C2(O)OC(=O)C(c3ccc4c(c3)OCO4)=C2Cc2cc(OC)c(OC)c(OC)c2)cc1 (stereo not given) [PD-156707] , Fibroblast, Growth Rate recorded as 1

* * *

Tested on: U2OS
Assay: Multiplex assay against U2OS
Format: toxicity, cell-based
Details: human, 48 h, 10 µM, compound concentration 10 uM, replicate 1
Everything with Population Apoptotic (%) lower than 80% is class 0; everything else, including exactly 80%, is class 1.

COc1cccc([C@@H](C)NCCCc2ccccc2Cl)c1.Cl [TECALCET HYDROCHLORIDE]	class 0

[ask] Answer whether Population Apoptotic (%) of O=C1NCN(c2ccccc2)C12CCN(CCCOc1ccc(F)cc1)CC2 [SPIRAMIDE] is greater than or equal to 80%.
[reply] class 0

[ask] Answer whether Population Apoptotic (%) of CN1CCC[C@@H]1CCO[C@](C)(c1ccccc1)c1ccc(Cl)cc1.O=C(O)/C=C/C(=O)O [CLEMASTINE FUMARATE] is greater than or equal to 80%.
[reply] class 1

[ask] Answer whether Population Apoptotic (%) of c1cn2cc(-c3ccc4cn[nH]c4c3)nc(Nc3ccc(N4CCOCC4)cc3)c2n1 is greater than or equal to 80%.
[reply] class 0

[ask] Answer whether Population Apoptotic (%) of CN1CCN(c2ccc(OC(F)(F)F)c(Nc3ncc4c(n3)-c3c(c(C(N)=O)nn3CCO)CC4)c2)CC1 is greater than or equal to 80%.
[reply] class 1

[ask] Answer whether Population Apoptotic (%) of C=CC(=O)Nc1cccc(C(=O)Nc2ccc(Nc3cc(-c4[nH]c(SC)nc4C)ccn3)cc2)c1 is greater than or equal to 80%.
[reply] class 0

[ask] Answer whether Population Apoptotic (%) of CN(C)CC#Cc1ccc(OCCCc2sc(N3CCc4cccc(C(=O)Nc5nc6ccccc6s5)c4C3)nc2C(=O)O)c(F)c1 is greater than or equal to 80%.
[reply] class 0

[ask] Answer whether Population Apoptotic (%) of CC(C)NCC(O)COc1ccc(CCOCC2CC2)cc1.Cl (stereo not given) [BETAXOLOL HYDROCHLORIDE] is greater than or equal to 80%.
[reply] class 0

[ask] Answer whether Population Apoptotic (%) of Cc1csc2c(N[C@@H](C)CN3CCN(S(=O)(=O)c4ccc(Cl)c(Cl)c4)CC3)ncnc12 is greater than or equal to 80%.
[reply] class 1

* * *

Entries annotated with measured Population Apoptotic (%)
System: U2OS
Assay: Multiplex assay against U2OS
Type: toxicity, cell-based
Settings: human, 48 h, 10 µM, compound concentration 10 uM, replicate 1
Give the number; % is assumed, so skip it.

Item: Cl.N#Cc1ccc2[nH]cc(CCCCN3CCN(c4ccc5oc(C(N)=O)cc5c4)CC3)c2c1 [VILAZODONE HYDROCHLORIDE] | Population Apoptotic (%): 91

Item: COc1cc2nccc(Oc3ccc(NC(=O)Nc4cc(C)on4)c(Cl)c3)c2cc1OC.O | Population Apoptotic (%): 91

Item: CCOCCn1cc(C(=O)Nc2ccc(-n3nc(-c4cccnc4)cc3C(F)(F)F)cn2)ccc1=O | Population Apoptotic (%): 51

Item: COc1cc(-n2cnc3cc(-c4ccc(Cl)cc4)sc3c2=O)ccc1OCCN1CCCC1 | Population Apoptotic (%): 97

Item: Cc1c(-c2ccc(O)cc2)n(Cc2ccc(OCCN3CCCCCC3)cc2)c2ccc(O)cc12 | Population Apoptotic (%): 95

* * *

Tested on: HEK-293T
Assay: Multiplex assay against HEK293T
Format: toxicity, cell-based
Settings: human, 48 h, 10 µM, compound concentration 10 uM, replicate 1
measured_metric: Population Healthy Nuclei (%)
Give the number; % is assumed, so skip it.

Worked set:
CN(C)C(=O)N[C@H]1CC[C@H](CCN2CCN(c3cccc(Cl)c3Cl)CC2)CC1.Cl [CARIPRAZINE HYDROCHLORIDE]	41
Cc1c(-c2ccc(O)cc2)n(Cc2ccc(OCCN3CCCCCC3)cc2)c2ccc(O)cc12	1
Cn1cc(-c2[nH]c3cc(NC(=O)[C@H](N)C4CCCCC4)cc4c3c2C=NNC4=O)cn1	3

Item: C[C@@H](NCCCc1cccc(C(F)(F)F)c1)c1cccc2ccccc12.Cl [CINACALCET HYDROCHLORIDE] | Population Healthy Nuclei (%): 12

Item: C=CC(=O)Nc1cccc(C(=O)Nc2ccc(Nc3cc(-c4[nH]c(SC)nc4C)ccn3)cc2)c1 | Population Healthy Nuclei (%): 43

Item: CCOCCn1cc(C(=O)Nc2ccc(-n3nc(-c4cccnc4)cc3C(F)(F)F)cn2)ccc1=O | Population Healthy Nuclei (%): 33

Item: CC(C)NCC(O)COc1ccc(CCOCC2CC2)cc1.Cl (stereo not given) [BETAXOLOL HYDROCHLORIDE] | Population Healthy Nuclei (%): 48

Item: OC1(c2ccc(Cl)cc2)CCN(Cc2c[nH]c3ccccc23)CC1 | Population Healthy Nuclei (%): 0

Item: O=C1NCN(c2ccccc2)C12CCN(CCCOc1ccc(F)cc1)CC2 [SPIRAMIDE] | Population Healthy Nuclei (%): 30

Item: CNc1nc(NCc2ccc(NS(C)(=O)=O)cc2Cl)cc(-c2ccccn2)n1 | Population Healthy Nuclei (%): 29

* * *

Tested on: HEK-293T
Experiment: Multiplex assay against HEK293T
Assay type: toxicity, cell-based
Settings: human, 48 h, 10 µM, compound concentration 10 uM, replicate 2
Rule: Population Normal (%) below 90% gives condition met, anything at or above gives condition not met.

The examples below pair each entry with its known result.
COc1cc2nccc(Oc3ccc(NC(=O)Nc4cc(C)on4)c(Cl)c3)c2cc1OC.O	condition not met
CN(C)C(=O)/C(C#N)=C/c1ccc(-c2nc3cnc4[nH]ccc4c3n2C2CCCCC2)o1	condition met
CC[C@H](C)C(=O)O[C@H]1C[C@@H](C)C=C2C=C[C@H](C)[C@H](CC[C@@H]3C[C@@H](O)CC(=O)O3)[C@H]21	condition not met
c1cn2cc(-c3ccc4cn[nH]c4c3)nc(Nc3ccc(N4CCOCC4)cc3)c2n1	condition met
O=C1NCN(c2ccccc2)C12CCN(CCCOc1ccc(F)cc1)CC2 [SPIRAMIDE]	condition not met
Cc1nc(-c2ccc(-c3ccc(C(=O)N4CCc5cc6c(cc54)C4(CCN(C)CC4)CO6)cc3)c(C)c2)no1	condition met
Cc1[nH]c(/C=C2\C(=O)Nc3ccc(S(=O)(=O)N(C)c4cccc(Cl)c4)cc32)c(C)c1C(=O)N1CCN(C)CC1	condition not met
OC1(c2ccc(Cl)cc2)CCN(Cc2c[nH]c3ccccc23)CC1	condition not met
Cl.N#Cc1ccc2[nH]cc(CCCCN3CCN(c4ccc5oc(C(N)=O)cc5c4)CC3)c2c1 [VILAZODONE HYDROCHLORIDE]	condition met
COc1cccc([C@@H](C)NCCCc2ccccc2Cl)c1.Cl [TECALCET HYDROCHLORIDE]	condition not met

[ask] Lab log: compare recorded Population Normal (%) with 90%; is it strictly lower for CN1CCCC(n2nc(Cc3ccc(Cl)cc3)c3ccccc3c2=O)CC1.Cl (configuration not stated) [AZELASTINE HYDROCHLORIDE] ?
[reply] condition met

[ask] Lab log: compare recorded Population Normal (%) with 90%; is it strictly lower for CNc1nc(NCc2ccc(NS(C)(=O)=O)cc2Cl)cc(-c2ccccn2)n1 ?
[reply] condition not met

[ask] Lab log: compare recorded Population Normal (%) with 90%; is it strictly lower for CN(C)CC#Cc1ccc(OCCCc2sc(N3CCc4cccc(C(=O)Nc5nc6ccccc6s5)c4C3)nc2C(=O)O)c(F)c1 ?
[reply] condition not met

[ask] Lab log: compare recorded Population Normal (%) with 90%; is it strictly lower for Cn1cc(-c2[nH]c3cc(NC(=O)[C@H](N)C4CCCCC4)cc4c3c2C=NNC4=O)cn1 ?
[reply] condition met

[ask] Lab log: compare recorded Population Normal (%) with 90%; is it strictly lower for CNCc1ccccc1-c1csc([C@H](C)Nc2nc(C)nc3cc(OC)c(OC)cc23)c1 ?
[reply] condition not met
